Test system: UO-31 renal
Assay: NCI tumour cell line growth inhibition, 48 h
measured.endpoint: TGI

Reported TGI, molecule COc1ccc2c(c1)CCc1c-2[nH]c2cc3c(cc2c1=O)OCO3 : ____ > 100 µM

Now this one: CC1(C)CC[C@]2(C(=O)O)CC[C@]3(C)C(=CCC4=C5C[C@H](O)[C@H](O)[C@@](C)(CO)[C@@]5(C)CC[C@]43C)[C@@H]2C1 > 100 µM

Now this one: Cc1ccc(Sc2ccccc2C23OC(C)(C4C(=O)N(c5ccccc5)C(=O)C42)N(C)C3=O)cc1 (stereo not given) > 100 µM

Now this one: O=Cc1cn(CCCCCCCCn2cc(C=O)c3ccccc32)c2ccccc12 > 10 µM

Now this one: CN(c1ccccc1)c1cc2ccccc2nn1 > 100 µM
